Where do the numbers come from? From patent US11472838B2.

Catalogue of compounds with associated IC50
# target-desc: FXIII (Homo sapiens (Human), UniProt P00488)
# Sequence (P00488 39-732): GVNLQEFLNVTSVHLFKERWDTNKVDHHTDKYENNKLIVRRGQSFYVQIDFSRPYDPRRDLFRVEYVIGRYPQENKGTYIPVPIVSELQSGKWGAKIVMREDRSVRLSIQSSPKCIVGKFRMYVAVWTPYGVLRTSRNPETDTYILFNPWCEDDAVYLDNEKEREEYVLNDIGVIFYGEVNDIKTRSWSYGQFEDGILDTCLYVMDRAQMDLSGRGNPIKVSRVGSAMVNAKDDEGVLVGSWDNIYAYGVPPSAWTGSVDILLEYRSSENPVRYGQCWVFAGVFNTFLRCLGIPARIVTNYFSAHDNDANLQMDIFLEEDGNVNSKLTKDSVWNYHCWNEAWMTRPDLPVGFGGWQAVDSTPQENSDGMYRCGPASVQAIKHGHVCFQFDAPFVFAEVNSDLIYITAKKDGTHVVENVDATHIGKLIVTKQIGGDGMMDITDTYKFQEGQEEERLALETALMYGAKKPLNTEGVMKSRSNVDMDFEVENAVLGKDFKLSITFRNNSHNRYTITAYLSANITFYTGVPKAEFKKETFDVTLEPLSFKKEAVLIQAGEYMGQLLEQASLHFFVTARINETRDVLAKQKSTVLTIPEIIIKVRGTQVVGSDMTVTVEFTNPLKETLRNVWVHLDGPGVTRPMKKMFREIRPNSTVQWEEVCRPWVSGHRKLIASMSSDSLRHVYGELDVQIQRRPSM
# run-description: Inhibitory activity against FXIII (isopeptidase assay), Tables 3 and 4;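 also: FXIIIa activity read with a peptide substrate derived from the α2-antiplasmin N-terminal dodecapeptide, FXIII activated beforehand at room temperature, inhibitor-free wells with DMSO buffer as control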
# Assay type: biochemical
# test-settings: Table 4; read-out: FXIII IC50
*1 amine or outer side, *2 acyl side, *3 side chain or, on linkers, in order; H or OH if unused. Where a SMILES comes first, the peptide text is derived from it. [ ]: non-standard residue; d: D form. The star is where a group is joined. Nle(5E-ene,6-CO2Et) = CCOC(=O)/C=C/CC[C@H](N)C(=O)O; X1 = COC(=O)/C=C/CC[C@H](N[*:1])C(=O)[*:2]; Chg = N[C@H](C(=O)O)C1CCCCC1; Nle = CCCC[C@H](N)C(=O)O; Cbz = O=C(OCc1ccccc1)*
The answer is to be given in µM; state only the numeric part.

compound	IC50, µM
CCCC[C@H](NC(=O)[C@H](CC/C=C/C(=O)OC)NC(=O)[C@@H](CC(=O)O)NC(C)=O)C(=O)N[C@@H](CCCC)C(=O)N[C@@H](CC(C)C)C(=O)N1CCC[C@H]1C(=O)N[C@@H](Cc1c[nH]c2ccccc12)C(=O)O [Ref. 13, reference compound] (Ac-[dD][X1][Nle][Nle]LPW-OH)	0.465

Enquiry: Suppose we examine the compound CCOC(=O)/C=C/CC[C@H](NC(=O)OCc1ccccc1)C(=O)N[C@H](C(=O)N1CCC[C@H]1C(=O)N[C@@H](CC(C)C)C(=O)N[C@H](C(N)=O)C1CCCCC1)C1CCCCC1 [Ref. 12, reference compound] (Cbz-[Nle(5E-ene,6-CO2Et)][Chg]PL[Chg]-NH2) ; what IC50 value has been reported?
Return: 6.77

###

# run-description: in vitro
# test-settings: plasma
*1 amine or outer side, *2 acyl side, *3 side chain or, on linkers, in order; H or OH if unused. Where a SMILES comes first, the peptide text is derived from it. [ ]: non-standard residue; d: D form. ξ: configuration not given here. X1 = COC(=O)/C=C/CC[C@H](N[*:1])C(=O)[*:2]; Pro(4-oxo) = O=C1CN[C@H](C(=O)O)C1; Ile(3ξ) = CCC(C)[C@H](N)C(=O)O; Thr(3ξ) = CC(O)[C@H](N)C(=O)O; Nle = CCCC[C@H](N)C(=O)O
molecules and their reported half-life

Take a look at these entries with their results.
molecule	reported-metric	test-result
CCCC[C@H](NC(=O)[C@H](CC/C=C/C(=O)OC)NC(=O)[C@@H]1CC(=O)CN1)C(=O)N[C@H](C(=O)N[C@@H](CC(C)C)C(=O)N1CCC[C@H]1C(=O)O)C(C)CC (stereo partly drawn) [Ref. 16, reference compound] (H-[Pro(4-oxo)][X1][Nle][Ile(3ξ)]LP-OH)	half-life	< 15 min
COC(=O)/C=C/CC[C@H](NC(=O)[C@H](CC(N)=O)NC(C)=O)C(=O)N[C@@H](CCC(=O)O)C(=O)N[C@@H](CCC(N)=O)C(=O)N[C@H](C(=O)N[C@@H](CO)C(=O)N1CCC[C@H]1C(=O)N[C@@H](CC(C)C)C(=O)N[C@H](C(=O)N[C@@H](CC(C)C)C(=O)N[C@@H](CC(C)C)C(=O)N[C@@H](CCCCN)C(=O)O)C(C)O)C(C)C (stereo partly drawn) [Ref. 17, reference compound] (Ac-N[X1]EQVSPL[Thr(3ξ)]LLK-OH)	half-life	< 15 min

Now turn to the next molecule.
Enquiry: Quick check: half-life of CCCC[C@H](NC(=O)[C@H](CC/C=C/C(=O)OC)NC(=O)[C@@H](CC(=O)O)NC(C)=O)C(=O)N[C@@H](CCCC)C(=O)N[C@@H](CC(C)C)C(=O)N1CCC[C@H]1C(=O)N[C@@H](Cc1c[nH]c2ccccc12)C(=O)N1CCC[C@H]1C(=O)O [Ref. 22, reference compound] (Ac-[dD][X1][Nle][Nle]LPWP-OH) ?
Return: < 15 min
